Target: horseradish peroxidase (HRP) tagged delF508-CFTR (Homo sapiens, UniProt P13569, DEL508-508)
Construct: expressed in transfected cells
Assay: Measurement of delF508-CFTR-HRP surface expression in CFBE41o- cells;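 as to DelF508-CFTR-HRP Amax %: percent efficacy relative to reference corrector lumacaftor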
Format: cell-based
Conditions: delF508-CFTR-HRP surface expression, CFBE41o- cells; read-out: DelF508-CFTR-HRP Amax %
Structures can show the parent of a compound that is named as a salt.
Flag rule - Emax less than 400% flags MET; the remaining entries get NOT MET.

>>> df
                                    molecule  discrete_label
 0  Cc1cccc(C)c1-c1nc(NS(=O)(=O)c2cccc(N3CCN(C)CC3=O)n2)ccc1Cl         NOT MET
 1  Cc1ccc(F)cc1-c1nc(NS(=O)(=O)c2ccnc(N)c2)ccc1C(F)(F)F             MET
 2  Cc1ccccc1-c1nc(NS(=O)(=O)c2cccc(N3CC[C@H](N)C3)n2)ccc1C(F)(F)F [Example 120, Hydrochloride]             MET
 3  Nc1cccc(S(=O)(=O)Nc2ccc(Cl)c(-c3ccccc3C3CC3)n2)n1         NOT MET
 4  Cc1ccc(F)cc1-c1nc(NS(=O)(=O)c2cccc(N3C[C@@H]4CC[C@H]3CN4)n2)ccc1C(F)(F)F [Example 200, Hydrochloride]         NOT MET
 5  Cc1c(F)cccc1-c1nc(NS(=O)(=O)c2ccnc(N3CCOC[C@H]3C)c2)ccc1Cl             MET
 6  CC(C)c1ccccc1-c1nc(NS(=O)(=O)c2ccc(N)nc2)ccc1Cl             MET
 7  Cc1ccc(F)cc1-c1nc(NS(=O)(=O)c2cccc(N3CCC(C(=O)O)C3)n2)ccc1C(F)(F)F (stereo not shown)         NOT MET
 8  Cc1ccccc1-c1nc(NS(=O)(=O)c2cccc(N3CCC4(CCC(CO)[C@H]4N)CC3)n2)ccc1C(F)(F)F (stereo partly shown)             MET
 9  Cc1ccccc1-c1nc(NS(=O)(=O)c2cccc(N[C@H]3C[C@](C)(C(=O)O)C3)n2)ccc1C(F)(F)F             MET
10  Nc1cccc(S(=O)(=O)Nc2ccc(Cl)c(-c3cc(Cl)ccc3C3CC3)n2)n1         NOT MET
11  Cc1ccccc1-c1nc(NS(=O)(=O)c2cccc(N[C@@H]3CCOC[C@H]3O)n2)ccc1C(F)(F)F         NOT MET
12  Cc1cccc(C)c1-c1nc(NS(=O)(=O)c2cccc(N)n2)ccc1F         NOT MET
13  O=S(=O)(Nc1ccc(Cl)c(-c2cccc(F)c2Cl)n1)c1cccc(N2CC(O)C2)n1             MET
14  COc1ccc(Cl)c(-c2nc(NS(=O)(=O)c3cccc(N4CCC(C)(C(=O)O)CC4)n3)ccc2Cl)c1             MET
15  Cc1ccccc1-c1nc(NS(=O)(=O)c2cccc(O[C@@H]3COC[C@]3(C)O)n2)ccc1C(F)(F)F (single isomer, unassigned)         NOT MET
16  Nc1cccc(S(=O)(=O)Nc2ccc(Cl)c(-c3cc(C(F)(F)F)ccc3Cl)n2)n1             MET

---

Biological target: delF508-CFTR (Homo sapiens, UniProt P13569, DEL508-508)
Construct: functional activity of the CFTR channel (Chloride ion transport) in patient derived primary human bronchial epithelial cells; host or cells: patient-derived primary human bronchial epithelial cells (delF508-CFTR)
Sequence (P13569 with tags, fused parts or gaps DEL508-508): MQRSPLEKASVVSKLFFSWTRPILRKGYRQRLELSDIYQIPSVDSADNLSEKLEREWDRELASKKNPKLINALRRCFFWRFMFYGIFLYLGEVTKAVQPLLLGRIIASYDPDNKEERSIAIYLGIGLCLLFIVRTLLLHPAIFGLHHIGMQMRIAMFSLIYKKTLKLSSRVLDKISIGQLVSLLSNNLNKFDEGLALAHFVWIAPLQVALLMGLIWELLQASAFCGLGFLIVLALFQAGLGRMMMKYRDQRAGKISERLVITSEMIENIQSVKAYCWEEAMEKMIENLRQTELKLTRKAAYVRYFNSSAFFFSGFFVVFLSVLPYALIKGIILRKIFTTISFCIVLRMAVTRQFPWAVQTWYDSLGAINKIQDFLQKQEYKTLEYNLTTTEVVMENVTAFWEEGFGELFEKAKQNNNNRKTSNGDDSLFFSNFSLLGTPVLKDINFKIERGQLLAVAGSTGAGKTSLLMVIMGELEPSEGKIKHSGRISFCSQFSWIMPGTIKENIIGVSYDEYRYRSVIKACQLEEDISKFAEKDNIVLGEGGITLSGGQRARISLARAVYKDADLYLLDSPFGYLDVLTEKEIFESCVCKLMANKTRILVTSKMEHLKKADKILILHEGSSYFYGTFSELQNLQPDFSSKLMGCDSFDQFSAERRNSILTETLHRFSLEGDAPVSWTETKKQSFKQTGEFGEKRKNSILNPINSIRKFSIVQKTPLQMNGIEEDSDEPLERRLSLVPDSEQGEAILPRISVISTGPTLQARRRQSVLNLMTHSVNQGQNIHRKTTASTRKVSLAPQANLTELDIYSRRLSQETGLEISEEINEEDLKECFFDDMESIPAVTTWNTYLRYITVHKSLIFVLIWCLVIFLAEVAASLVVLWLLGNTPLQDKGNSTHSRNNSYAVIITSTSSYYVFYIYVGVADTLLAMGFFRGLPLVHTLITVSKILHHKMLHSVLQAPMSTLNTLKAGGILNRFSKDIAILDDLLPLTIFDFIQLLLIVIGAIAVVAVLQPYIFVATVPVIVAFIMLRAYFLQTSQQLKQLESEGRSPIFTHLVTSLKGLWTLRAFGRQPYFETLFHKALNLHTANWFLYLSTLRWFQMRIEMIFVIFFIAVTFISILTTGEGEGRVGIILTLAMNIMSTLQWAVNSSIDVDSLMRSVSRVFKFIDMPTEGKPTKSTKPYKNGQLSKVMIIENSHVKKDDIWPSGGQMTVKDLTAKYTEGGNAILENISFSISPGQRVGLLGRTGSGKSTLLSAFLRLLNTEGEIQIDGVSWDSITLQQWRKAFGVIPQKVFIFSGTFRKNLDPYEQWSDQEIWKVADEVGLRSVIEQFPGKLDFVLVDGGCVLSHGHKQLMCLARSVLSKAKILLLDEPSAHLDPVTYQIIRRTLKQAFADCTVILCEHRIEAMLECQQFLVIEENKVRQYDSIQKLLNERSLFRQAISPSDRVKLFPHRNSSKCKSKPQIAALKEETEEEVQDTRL
Test: Measurement of delF508-CFTR functional activity in primary human bronchial epithelial cells (HBECs) using Multi-Transepithelial Clamp Circuit (MTECC-24) assay
Assay type: cell-based
Settings: primary CF HBECs; test compound added 24h before assay plus potentiator; relative to reference combination (2 μM corrector + 0.5 μM potentiator)
Structures can show the parent of a compound that is named as a salt.
Quantity name: MTECC24 CFHBEC- Amax %

In [3]: df
Out[3]:
                                   compound           quantity_name  result
0  CCCC1(C(=O)O)CCCN(c2cccc(S(=O)(=O)Nc3ccc(C(F)(F)F)c(-c4ccccc4CC)n3)n2)C1 (stereo not drawn) [Example 352]  MTECC24 CFHBEC- Amax %   82.2%
1  Cc1ccccc1-c1nc(NS(=O)(=O)c2cccc(N3CCC4(CCC(CO)[C@H]4N)CC3)n2)ccc1C(F)(F)F (stereo partly drawn) [Example 307]  MTECC24 CFHBEC- Amax %   61.5%
2  Cc1c(-c2nc(NS(=O)(=O)c3cccc(N)n3)ccc2Cl)cccc1C(F)(F)F [Example 34]  MTECC24 CFHBEC- Amax %   58.2%
3  Cc1ccccc1-c1nc(NS(=O)(=O)c2cccc(N3CCNCC3)n2)ccc1C(F)(F)F [Example 161, (HCl Salt)]  MTECC24 CFHBEC- Amax %   88.2%
4  Cc1cccc(C)c1-c1nc(NS(=O)(=O)c2cccc(N)n2)ccc1Cl [Example 11]  MTECC24 CFHBEC- Amax %   94.3%
5  Cc1ccc(OC(F)(F)F)cc1-c1nc(NS(=O)(=O)c2cccc(N)n2)ccc1Cl [Example 89]  MTECC24 CFHBEC- Amax %   35.7%

---

Target: horseradish peroxidase (HRP) tagged delF508-CFTR (Homo sapiens, UniProt P13569, DEL508-508)
Construct: expressed in transfected cells
Experiment: Measurement of delF508-CFTR-HRP surface expression in CFBE41o- cells
Assay type: cell-based
Conditions: delF508-CFTR-HRP surface expression, CFBE41o- cells; read-out: DelF508-CFTR-HRP EC50
Counter-ions that a name gives are not always drawn.
EC50 by entry:
Quantity name: EC50 (nM)

In [3]: df
Out[3]:
                                    compound  quantity_name  numeric_readout
 0  Cc1ccccc1-c1nc(NS(=O)(=O)c2cccc(N3CCN[C@H](C)C3)n2)ccc1C(F)(F)F [Example 167, Hydrochloride]           EC50             3710
 1  Cc1ccccc1-c1nc(NS(=O)(=O)c2cccc(N[C@H]3C[C@H](O)C3)n2)ccc1C(F)(F)F           EC50             2280
 2  Cc1cc(C)c(-c2nc(NS(=O)(=O)c3cccc(N)n3)ccc2Cl)c(C)c1           EC50             1640
 3  Cc1ccccc1-c1nc(NS(=O)(=O)c2cccc(OC3CCC(C(=O)O)CC3)n2)ccc1C(F)(F)F (stereo not shown)           EC50             1900
 4  COC(=O)C1CCN(c2cccc(S(=O)(=O)Nc3ccc(Cl)c(-c4c(C)cccc4C)n3)n2)CC1           EC50             1790
 5  Nc1cccc(S(=O)(=O)Nc2ccc(Cl)c(-c3c(F)cc(F)cc3F)n2)n1           EC50             3530
 6  Cc1cccc(C)c1-c1nc(NS(=O)(=O)c2cccc(O[C@@H]3COC[C@@H]3O)n2)ccc1Cl (racemic)           EC50             1440
 7  Cc1ccccc1-c1nc(NS(=O)(=O)c2cccc(O[C@@H]3COC[C@@H]3O)n2)ccc1C(F)(F)F (racemic) [Example 291]           EC50             2500
 8  Cc1ccc(F)cc1-c1nc(NS(=O)(=O)c2cccc(N3CCN(C4CC4)CC3)n2)ccc1C(F)(F)F           EC50             1270
 9  Cc1ccc(C#N)cc1-c1nc(NS(=O)(=O)c2cccc(N3CC(C)(O)C3)n2)ccc1C(F)(F)F           EC50             2440
10  O=S(=O)(Nc1ccc(C(F)(F)F)c(-c2cccc(F)c2Cl)n1)c1cccc(N2CCNCC2)n1 [Example 155, hydrochloride]           EC50             4400
11  Cc1ccc(C(F)(F)F)cc1-c1nc(NS(=O)(=O)c2cccc(N3CCN(C(=O)OC(C)(C)C)CC3)n2)ccc1Cl           EC50              626
12  Cc1cccc(C)c1-c1nc(NS(=O)(=O)c2cccc(N3CCC(C)(C(=O)O)CC3)n2)ccc1Cl           EC50             1830
13  CNC1CCN(c2cccc(S(=O)(=O)Nc3ccc(C(F)(F)F)c(-c4ccccc4C)n3)n2)CC1 [Example 109, Hydrochloride]           EC50             2680
14  Cc1ccccc1-c1nc(NS(=O)(=O)c2cccc(N3CC(C(=O)O)C3)n2)ccc1C(F)(F)F           EC50             2300
15  O=S(=O)(Nc1ccc(C(F)(F)F)c(-c2ccc(F)cc2Cl)n1)c1cccc(N2CCNCC2)n1 [Example 153, Hydrochloride]           EC50             3800
16  COc1ccc(NS(=O)(=O)c2cccc(N)n2)nc1-c1c(C)cccc1C [Example 72, hydrochloride]           EC50             3410
17  Cc1cccc(C)c1-c1ccc(Cl)c(NS(=O)(=O)c2cccc(N)n2)n1           EC50             4330
18  Cc1ccc(F)cc1-c1nc(NS(=O)(=O)c2cccc(N[C@@H]3CCOC[C@H]3O)n2)ccc1Cl           EC50             1380
19  Cc1cccc(C)c1-c1nc(NS(=O)(=O)c2cccc(N)n2)ccc1Cl           EC50             1350
20  CC(F)(F)c1ccccc1-c1nc(NS(=O)(=O)c2cccc(N)n2)ccc1Cl           EC50             2330
21  Cc1ccc(F)cc1-c1nc(NS(=O)(=O)c2cccc(N3CCC[C@@H](C(=O)O)C3)n2)ccc1C(F)(F)F           EC50             2060
